MEASUREMENT_PROTOCOL: label from the status in PepcDB records

>  <CHAIN>
MEKAGMHRTLNYRLRFDIPLVGKDCEYALVQDLPASVYISTDELDDLQRLKRLNAIYPKFVNIEVATERAQPFSVLLRGTPKITESLALPVHFRYHAPSDKRLAATVAIPLPELYLNCPMADSALIENELVARPDKLYCLNAPESRFDENHIKDGQPTTMANLERCNWRRVHVDCQLKMPLRAEIPVGHASAYGPVLCGTILLGWSLALWTIIHSMANTRRINQRLNEQRLLQQKVK

>  <protein production>
failed

$$$$
>  <CHAIN>
MTAHKQPEANETESLLEQVQALESEVRGVVKTQLQLAGMETRRAGESFVRMVAFAVLAACLAFTAWAVLVTAAVIAIVNSSVMSLTTALVIVAVAHLAAAFYIVRYIKRRSRDLLFAETSSSL

>  <protein production>
failed

$$$$
>  <CHAIN>
LKLTKIIVSEAGASVYSASEIAANEFPDLDVSLRGAVSIARRLQDPLAELVKIEAKSIGVGQYQHDVNQAKLARCLDGVVEDCVNAVGVDINTASAALLSHISGLNDTLAKNIVQFRDEHGAFTNRNQLKNIHRMGEKAFQQAAGFLRIMNGDNALDASCVHPEAYPLVEKIISDKKVSIKEIIGNRELLQSINAEQYVDENFG

>  <protein production>
failed

$$$$
